B1: CDC25B (parent)
chain: KSPIAPCSLDKRVILIFHCEFSSE

Variants of: B1
Method description: protein stability index of a GFP-peptide fusion (GPS, HEK-293T) (PSI 1-6); higher = more stable;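 further: lentivirally expressed fusions sorted by FACS into six bins by GFP to DsRed ratio, PSI derived from sequencing read proportions per bin multiplied by bin number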
Experimental conditions: c terminus: a fixed tail appended
We use 3 as the dividing line for protein stability index: on or above the line is true, below is false.

# check: protein stability index of S8L is greater than or equal to 3
false

# check: protein stability index of S23M is greater than or equal to 3
false

# check: protein stability index of L15I is greater than or equal to 3
true

# check: protein stability index of S23A is greater than or equal to 3
true

# check: protein stability index of F21S is greater than or equal to 3
false

# check: protein stability index of H18N is greater than or equal to 3
false

# check: protein stability index of F21D is greater than or equal to 3
false

# check: protein stability index of I16L is greater than or equal to 3
false

# check: protein stability index of C19K is greater than or equal to 3
false

# check: protein stability index of S22Y is greater than or equal to 3
false

# check: protein stability index of I16M is greater than or equal to 3
false

# check: protein stability index of I16A is greater than or equal to 3
false

# check: protein stability index of I14N is greater than or equal to 3
false

# check: protein stability index of H18S is greater than or equal to 3
true

# check: protein stability index of S22Q is greater than or equal to 3
false

# check: protein stability index of E20F is greater than or equal to 3
false

# check: protein stability index of F21N is greater than or equal to 3
false

# check: protein stability index of I4S is greater than or equal to 3
false

# check: protein stability index of A5H is greater than or equal to 3
false

# check: protein stability index of L9I is greater than or equal to 3
true

# check: protein stability index of K11Y is greater than or equal to 3
false

# check: protein stability index of L15E is greater than or equal to 3
false

# check: protein stability index of C7A is greater than or equal to 3
false

# check: protein stability index of I14M is greater than or equal to 3
false

# check: protein stability index of I16T is greater than or equal to 3
false

# check: protein stability index of P3I is greater than or equal to 3
false

# check: protein stability index of C19I is greater than or equal to 3
false

# check: protein stability index of S8V is greater than or equal to 3
false

# check: protein stability index of K1P is greater than or equal to 3
true

# check: protein stability index of P6G is greater than or equal to 3
false

# check: protein stability index of D10T is greater than or equal to 3
true

# check: protein stability index of E24D is greater than or equal to 3
false

# check: protein stability index of L15K is greater than or equal to 3
false

# check: protein stability index of F17P is greater than or equal to 3
false

# check: protein stability index of S23N is greater than or equal to 3
false

# check: protein stability index of S2Y is greater than or equal to 3
true

# check: protein stability index of E20N is greater than or equal to 3
true

# check: protein stability index of H18I is greater than or equal to 3
false

# check: protein stability index of I14L is greater than or equal to 3
false

# check: protein stability index of A5M is greater than or equal to 3
false

# check: protein stability index of I16N is greater than or equal to 3
false

# check: protein stability index of R12M is greater than or equal to 3
false

# check: protein stability index of K11P is greater than or equal to 3
true

# check: protein stability index of D10C is greater than or equal to 3
false

# check: protein stability index of P3L is greater than or equal to 3
true

# check: protein stability index of L15F is greater than or equal to 3
false
